IC50 values by entry
Target: KRAS G12C in MiaPaCa2 cells (Homo sapiens, UniProt P01116, G12C)
Construct: endogenous in cells; host or cells: MiaPaCa2
Experiment: MiaPaCa2 Cell Activity Assay (Raf-1 RBD capture of active Ras, MSD)
Format: cell-based
Conditions: MIAPaCa-2 cells, 6 hours treatment; assay limit is 30.0 μM
Procedure: MiaPaCa2 Cell Activity Assay Compounds presented in the present invention lead to the accumulation of the GDP bound Ras upon treatment of human cancer cell line. The accumulation of the GDP-bound KRAS G12C in cellular environment was measured based on the principle that KRAS G12C only binds to its downstream kinase; Raf-1 (MAP Kinase Kinase Kinase), when in its active-GTP bound state. In this state, Ras binded to a domain of Raf-1 kinase referred to as the Ras Binding Domain (RBD). […]
The reply should contain only the number, in µM.

Recorded IC50, per entry:
{"compound": "C=CC(=O)N1CCN(c2nc(N3CC(CN(C)C)C3)nc3c2C[C@@H](C)[C@H](c2c(C)ccc4[nH]ncc24)C3)CC1 (relative stereo) [Example F9]", "endpointUnit": "µM", "IC50": 1}
{"compound": "C=CC(=O)N1CCN(c2ncnc3c2CCC(c2c(C)ccc4[nH]ncc24)C3)CC1C (stereo not shown) [Example B3]", "endpointUnit": "µM", "IC50": 28.4}
{"compound": "C=CC(=O)N1CCN(c2nc(N3CC(N(C)C)C3)nc3c2C[C@@H](C)[C@H](c2c(C)ccc4[nH]ncc24)C3)CC1 (relative stereo) [Example F1]", "endpointUnit": "µM", "IC50": 0.429}
{"compound": "C=CC(=O)N1CCN(c2nc(OCCCN(C)C)nc3c2C[C@@H](C)[C@H](c2c(Cl)c(C)cc4[nH]ncc24)C3)CC1 (relative stereo) [Example C7]", "endpointUnit": "µM", "IC50": 0.088}
{"compound": "C=CC(=O)N1CCN(c2nc(N3CC(N(C)C)C3)nc3c2C[C@@H](C)[C@H](c2c(C)c(Cl)cc4[nH]ncc24)C3)C[C@H]1C [Example F13]", "endpointUnit": "µM", "IC50": 0.113}
{"compound": "C=CC(=O)N1CCN(c2nc(N3CC(N(C)C)C3)nc3c2C[C@H](C)[C@@H](c2c(Cl)c(C)cc4[nH]ncc24)C3)CC1 [Example F8]", "endpointUnit": "µM", "IC50": 22.9}
{"compound": "C=CC(=O)N1CCN(c2ncnc3c2C[C@@H](C)[C@H](c2c(C)ccc4[nH]ncc24)C3)CC1 [Example A5]", "endpointUnit": "µM", "IC50": 0.64}
{"compound": "C=CC(=O)N1CCN(c2nc(N3CC(N(C)C)C3)nc3c2C[C@@H](C)[C@H](c2c(Cl)ccc4[nH]ncc24)C3)CC1 (single isomer, unassigned) [Example F10]", "endpointUnit": "µM", "IC50": 0.169}

Response field IC50 (KRAS G12C in MiaPaCa2 cells (Homo sapiens, UniProt P01116, G12C)) for item C=CC(=O)N1CCN(c2nc(OC[C@@H]3CCCN3C)nc3c2C[C@@H](C)[C@H](c2c(C)ccc4[nH]ncc24)C3)CC1 [Example C9] : 0.382

Form field, IC50 with KRAS G12C in MiaPaCa2 cells (Homo sapiens, UniProt P01116, G12C), item C=CC(=O)N1CCN(c2nc(OCCN(C)C)nc3c2C[C@@H](C)[C@H](c2c(Cl)c(C)cc4[nH]ncc24)C3)CC1 (relative stereo) [Example C8] : 0.14

* * *

Target: GDP-loaded kRas (1-169) G12C, C51S, C80L, C118S (Homo sapiens, UniProt P01116, C118S/C51S/C80L/G12C)
Construct: GDP-loaded kRas (1-169) G12C, C51S, C80L, C118S
Assay: Mass Spectrometry Reactivity Assay (MSRA), covalent adduct with kRas G12C
Format: binding
Settings: 0.5 h at room temperature; 5 μM KRas protein; typical final concentration of the compounds 10 μM
Label yes when % Modification (0.5 h) is strictly below 70%; otherwise label no.

A selection of reference data follows.
{"compound": "C=CC(=O)N1CCN(c2ncnc3c2C[C@@H](C)[C@H](c2c(C)c(Cl)cc4[nH]ncc24)C3)CC1 (relative stereo)", "classLabel": "no"}
{"compound": "C=CC(=O)N1CCN(c2ncnc3c2C[C@@H](C)[C@H](c2c(C)ccc4[nH]ncc24)C3)CC1 (relative stereo) [Example A4]", "classLabel": "yes"}
{"compound": "C=CC(=O)N1CCN(c2ncnc3c2CCC(c2c(C)ccc4[nH]ncc24)C3)CC1C (centres unmarked)", "classLabel": "yes"}
{"compound": "C=CC(=O)N1CCN(c2ncnc3c2CC[C@@H](c2cc(O)cc4ccccc24)C3)CC1 (single isomer, unassigned)", "classLabel": "yes"}
{"compound": "C=CC(=O)N1CCN(c2ncnc3c2C[C@@H](C)[C@H](c2c(C)ccc4[nH]ncc24)C3)CC1 [Example A5]", "classLabel": "no"}

# strict comparison: is reported % Modification (0.5 h) < 70%? input = C=CC(=O)N1CCN(c2nc(OCCN(C)C)nc3c2C[C@@H](C)[C@H](c2c(C)ccc4[nH]ncc24)C3)CC1
yes

Confirm or reject: % Modification (0.5 h) of C=CC(=O)N1CCN(c2ncnc3c2CCC(c2c(C)ccc4[nH]ncc24)C3)CC1 (centres unmarked) lies strictly below 70%
yes

Strictly below 70%: is that where % Modification (0.5 h) of C=CC(=O)N1CCN(c2ncnc3c2CC[C@H](c2c(C)ccc4[nH]ncc24)C3)CC1 (single isomer, unassigned) sits?
yes

Determine if C=CC(=O)N1CCN(c2nc(OCCCN(C)C)nc3c2C[C@@H](C)[C@H](c2c(C)ccc4[nH]ncc24)C3)CC1 shows % Modification (0.5 h) strictly lower than 70%.
no

Just wondering, is % Modification (0.5 h) of C=CC(=O)N1CCN(c2nc(N3CC(N(C)C)C3)nc3c2C[C@@H](C)[C@H](c2c(C)ccc4[nH]ncc24)C3)CC1 (single isomer, unassigned) [Example F2] below 70%?
no

Find out if reported % Modification (0.5 h) for C=CC(=O)N1CCN(c2nc(N3CC(N(C)C)C3)nc3c2C[C@@H](C)[C@H](c2c(C)c(Cl)cc4[nH]ncc24)C3)C[C@H]1C is less than 70%
no

Report whether reported % Modification (0.5 h) is lower than 70% (strictly) for C=CC(=O)N1CCN(c2nc(OCCO)nc3c2CCC(c2c(C)ccc4[nH]ncc24)C3)CC1 (centres unmarked)
yes

Is % Modification (0.5 h) of C=CC(=O)N1CCN(c2ncnc3c2C[C@H](C)[C@@H](c2c(C)ccc4[nH]ncc24)C3)CC1 strictly below 70%?
yes

* * *

Molecular target: KRAS G12C in MiaPaCa2 cells (Homo sapiens, UniProt P01116, G12C)
Construct: endogenous in cells; host or cells: MiaPaCa2
Experiment: MiaPaCa2 Cell Activity Assay (Raf-1 RBD capture of active Ras, MSD)
Assay type: cell-based
Conditions: MIAPaCa-2 cells, 6 hours treatment; assay limit is 30.0 μM
Recorded IC50 determines the label; the label ranges are label 0 (below 0.3 µM), label 1 (0.3 µM to below 4 µM), label 2 (4 µM or more)

Before answering, review these 2 worked examples.
{"compound": "C=CC(=O)N1CC2(C1)CN(c1ncnc3c1CCC(c1c(C)ccc4[nH]ncc14)C3)C2 (stereo not shown) [Example B1]", "classLabel": "label 2"}
{"compound": "C=CC(=O)N1CCN(c2nc(N3CCN(C)CC3)nc3c2C[C@@H](C)[C@H](c2c(C)ccc4[nH]ncc24)C3)CC1 (relative stereo) [Example F4]", "classLabel": "label 2"}

Category of C=CC(=O)N1CCN(c2nc(OCCCO)nc3c2CCC(c2c(C)ccc4[nH]ncc24)C3)CC1 (stereo not shown) [Example C4] :
label 1

In plain terms, what class is C=CC(=O)N1CCN(c2nc(N3CC(N(C)C)C3)nc3c2C[C@@H](C)[C@H](c2c(Cl)c(C)cc4[nH]ncc24)C3)C[C@H]1C [Example F12] ?
label 0

Where would C=CC(=O)N1CCN(c2nc(OCCN(C)C)nc3c2C[C@@H](C)[C@H](c2c(C)ccc4[nH]ncc24)C3)CC1 [Example C6] land among the classes by reported IC50?
label 0

The entry to classify is C=CC(=O)N1CCN(c2ncnc3c2CCC(c2c(C)ccc4[nH]ncc24)C3)CC1 (stereo not shown) [Example A1] ; which class holds it?
label 2

Classify this compound: C=CC(=O)N1CCN(c2nc(N3CC(N(C)C)C3)nc3c2C[C@@H](C)[C@H](c2c(Cl)ccc4[nH]ncc24)C3)CC1 (relative stereo) [Example F5]
label 0

Hi there! Could you help me figure out the category for C=CC(=O)N1CCN(c2ncnc3c2CC[C@H](c2cc(O)cc4ccccc24)C3)CC1 (single isomer, unassigned) [Example G3] please?
label 1

Hi there! Could you help me figure out the category for C=CC(=O)N1CCN(c2ncnc3c2C[C@@H](C)[C@H](c2c(C)ccc4[nH]ncc24)C3)CC1 (relative stereo) [Example A4] please?
label 1
